# ASSAYED TARGET: Factor X (FX), P00742
# Sequence (P00742 whole entry, looked up): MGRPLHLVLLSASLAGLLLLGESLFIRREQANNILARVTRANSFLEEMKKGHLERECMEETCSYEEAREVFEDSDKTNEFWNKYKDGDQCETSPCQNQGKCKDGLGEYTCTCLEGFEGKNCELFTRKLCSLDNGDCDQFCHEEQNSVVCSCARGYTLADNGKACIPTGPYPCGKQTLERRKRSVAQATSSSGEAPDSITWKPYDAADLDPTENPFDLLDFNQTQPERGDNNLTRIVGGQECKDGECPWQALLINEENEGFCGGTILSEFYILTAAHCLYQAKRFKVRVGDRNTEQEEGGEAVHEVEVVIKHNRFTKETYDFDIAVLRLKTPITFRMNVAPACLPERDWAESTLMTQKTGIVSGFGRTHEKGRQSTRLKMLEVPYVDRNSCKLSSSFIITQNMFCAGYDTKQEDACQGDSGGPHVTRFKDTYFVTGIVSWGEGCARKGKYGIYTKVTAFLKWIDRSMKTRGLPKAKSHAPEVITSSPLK
PROPERTY MEASURED: kcat (s⁻¹)
One number for each entry, in s⁻¹.

Asked: Dear colleague, I am looking for the recorded kcat of the following protein: FIXa-K247N/N249S/R318Y/R338E/T343R/E410N (protein) chain 1: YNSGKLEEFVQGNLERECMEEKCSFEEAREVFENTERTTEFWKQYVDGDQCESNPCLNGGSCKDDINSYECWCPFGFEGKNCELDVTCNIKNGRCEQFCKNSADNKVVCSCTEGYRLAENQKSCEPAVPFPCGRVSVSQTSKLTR chain 2: VVGGEDAKPGQFPWQVVLNGKVDAFCGGSIVNEKWIVTAAHCVETGVKITVVAGEHNIEETEHTEQNRSVIRIIPHHNYNAAINKYNHDIALLELDEPLVLNSYVTPICIADKEYTNIFLKFGSGYVSGWGRVFHKGYSALVLQYLRVPLVDRATCLESTKFRIYNNMFCAGFHEGGRDSCQGDSGGPHVTEVEGTSFLTGIISWGEECAMKGKYGIYTKVSRYVNWIKNKTKLT
Given back: 8.8
